Assignment: determine reported Neut IC50 subtype B for the given binders.
biological target: RSV F on RSV subtype B virus (mKate-RSV B 18537) (respiratory syncytial virus B 18537, UniProt P13843 26-574); experiment: cell-based or functional assay
Sequence (P13843 26-574): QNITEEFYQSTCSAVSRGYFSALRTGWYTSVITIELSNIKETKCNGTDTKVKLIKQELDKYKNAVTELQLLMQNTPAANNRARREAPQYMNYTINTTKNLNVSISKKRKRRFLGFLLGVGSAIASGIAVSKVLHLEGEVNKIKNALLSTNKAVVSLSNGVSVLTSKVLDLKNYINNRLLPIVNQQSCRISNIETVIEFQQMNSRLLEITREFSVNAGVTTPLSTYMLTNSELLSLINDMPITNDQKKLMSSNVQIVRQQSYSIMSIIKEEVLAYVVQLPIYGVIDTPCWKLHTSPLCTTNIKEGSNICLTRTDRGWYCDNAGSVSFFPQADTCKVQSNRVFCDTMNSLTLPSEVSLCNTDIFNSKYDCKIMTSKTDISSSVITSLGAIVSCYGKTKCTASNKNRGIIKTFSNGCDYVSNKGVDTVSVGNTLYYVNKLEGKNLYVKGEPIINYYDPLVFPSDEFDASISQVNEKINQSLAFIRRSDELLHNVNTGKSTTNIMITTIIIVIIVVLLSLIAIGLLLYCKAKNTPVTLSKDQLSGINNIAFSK
Report the value in µg/mL with no unit label.

GET /value?item= ADI-25495 (antibody, V domains shown, full-length IgG) VH: QVQLVQSGGGLVKPGGSLRLSCAASGFTFSSYSMNWVRQAPGKGLEWVSSISSSSSYIYYADSVKGRFTISRDNAKNSLYLQMNSLRAEDTAVYYCARGYCTNGVCYLDAFDIWGQGTTVTVSS VL: QSVLIQPASVSGSPGQSITISCTGTSSDVGGYNYVSWYQQHPGKAPKLMIYDVSNRPSGVSNRFSGSKSGNTASLTISGLQAEDEADYYCSSYTSSSTPVVFGGGTKVTVL &field=Neut IC50 subtype B returns 5.6

Neut IC50 subtype B reported for this binder ADI-14333 (antibody, V domains shown, full-length IgG; also called Ab 1) VH: EVQLVETGGGLVKPGGSLRLSCADSGFPFSSYSMHWVRQAPGKGLEWVASISSSSSFINYADSVKGRFTISRDNAKNSLYLQMNSLRAEDTAVYFCAREAACGGDCYGYYFDYWGQGTLVTVSS VL: QSVVTQPPSASGAPGQRVTISCTGSSSNIGAGYDVHWYQQLPGTAPKVLISGNSNRPSGVPARFSGSKSGTSASLAITGLQAEDEADYYCQSYDSSLSGSVFGGGTQLTVL : 0.09

Please fill in: Neut IC50 subtype B reported for ADI-19420 (antibody, V domains shown, full-length IgG) VH: EVQLLESGGGLVKPGGSLRLSCAASGFTFSSYSMNWVRQAPGKGLEWVSSISSSSSYIYYADSVKGRFTISRDNAKNSLYLQMNSLRAEDTAVYYCARVGWGYSYGYWFDPWGQGTLVTVSS VL: QSVLTQPPSVSGAPGQRVTISCTGSSSNIGAGYDVHWYQQLPGTAPKLLIYGNSNRPSGVPDRFSGSKSGTSASLAITGLQAEDEADYYCQSYDSSLSGVVFGGGTKLTVL = 0.64

Reported Neut IC50 subtype B ( ADI-24842 (antibody, V domains shown, full-length IgG) VH: QVQLVQSGGGLVKPGGSLRLSCAASGFTFSSYSMNWVRQAPGKGLEWVSSISSSSSYIYYADSVKGRFTISRDNAKNSLYLQMNSLRAEDTAVYYCARVPPHDYGGYYFDYWGQGTLVTVSS VL: QSVVTQPPSVSGAPGQRVTISCTGSSSNIGAGYDVHWYQQLPGTAPKLLIYRNSNRPSGVPDRFSGSKSGTSASLAIIGLQAEDEADYYCQSYDSSLSVVFGGGTKLTVL ) = 0.03

So for ADI-24814 (antibody, V domains shown, full-length IgG) VH: EVQLLESGGGVVQPGRSLRLSCAASGFTFNSYTMHWVRQAPGKGLEWVAVISYDGSNKYYADSVKGRFTISRDNSKNTLYLQMNSLRAEDTAVYYCARGRPYDFWSGYYTDYYYYMDVWGKGTTVTVSS VL: EIVLTQSPGTLSLSPGERATLSCRASQSVYSNYLAWYQQKPGQAPRLLIYGASSRATGIPDRFSGSGSGTDFTLTISRLEPEDFAVYYCQQCGSSWTFGQGTKVEIK , the logged Neut IC50 subtype B turned out to be 0.32
